# SUBJECT OF TEST: GLP-1 receptor (UniProt P43220 24-463, limits assumed)
# PROTOCOL DESCRIPTION: cell-based or functional assay
Non-standard residues stand in square brackets, D forms with d. No end group written: not given here. *: point of attachment. PEG40kDa = 40 kDa polyethylene glycol; Stearoyl = CCCCCCCCCCCCCCCCCC(=O)*; Aib = CC(C)(N)C(=O)O
ASSAY READOUT: EC50 (pM)

BINDER	RECORDED VALUE
H[Aib]QGTFTSDK(Stearoyl)SKYLDEQAAKEFIC(PEG40kDa)WLMNT-NH2 [Peptide Chimera 2-AIB2-K10-acylated]	465
HXQGTFTSDYSKYLDERRAKDFVQWLMNTK (d-Ser at 2; Lys 30 acylated with C14; C-terminal amide) [Peptide dS2E16K20K30-C14 Gluc Amide]	840
HXQGTFTSDKSKYLDERRAKDFVQWLMNT (d-Ser at 2; Lys 10 acylated with C14; C-terminal amide) [Peptide dS2K10(C14)E16K20-Gluc Amide]	41
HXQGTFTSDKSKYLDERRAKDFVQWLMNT (d-Ser at 2; Lys 10 acylated with C16; C-terminal amide) [Peptide dS2K10(C16)E16K20-Gluc Amide]	41
HXQGTFTSDYSKYLDEQAAKEFICWLMNTK (AIB at 2; Lys acylated with C18 (text says position 10, the name and the sequence say K30); 40 kDa PEG on Cys 24; C-terminal amide) [Peptide Chimera 2-AIB2-K30-acylated]	7
HXQGTFTSDYSKYLDERRAKDFVQWLMNTK (d-Ser at 2; Lys 30 acylated with C16; C-terminal amide) [Peptide dS2E16K20K30-C16 Gluc Amide]	3050
